- ASSAYED_SYSTEM: SHP2-C SH2;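 also: peptide library displayed on the E. coli surface as eCPX fusions, selected cells deep-sequenced, score is each peptide's frequency after selection divided by its frequency in the input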
- EXPERIMENT_DESCRIPTION: SH2 binding enrichment of the phosphorylated peptide, bacterial display (enrichment ratio); higher = better substrate or ligand; peptides without Tyr show the background

QUERY_SEQUENCE	SH2 binding enrichment
GGPAGYLRRAS [PKLR_Y38]	0.42
NACGLYHTMNG [GATA5_Y216_K218T]	0.589
IYRASYYRRGD [LTK_Y676]	0.471
KLFFHYNPKLC [INSR_Y457]	1.18
AKRKGYDMQVD [NEB_Y2770_R2773Q]	0.493
CASQLYPRHKH [DCTN4_Y263]	0.865
SQETYYRVSNM [ABCD1_Y181_Q178E]	0.79
LDFNEYFRDLN [HPRT1_Y198_YF]	0.604
LSIDRYHAIVF [NPSR1_Y147_YF]	0.691
ARSMEYLAEQK [MST1R_Y1198]	0.611
QFLMKYVWSAS [ABCD1_Y337]	0.668
STLEVYRCHPP [IL21R_Y317_S318R]	0.455
FSGKAYADEEQ [CRIM1_Y826_R831Q]	0.8
KILPEYLSNWT [AIFM1_Y347]	0.873
GKMSQYLESMQ [CYB5R3_Y130]	0.715
GIMEEYQLPFF [BMPR1A_Y453_V450M_YF]	0.464
SSYDTYHLSRE [KIR3DL2_Y253_I252T]	0.529
PGVNYYFQVSA	0.629
VGNPAYRSFSN [IL4R_Y497_A492V]	0.547
DNACQYMLTDR [MYH7_Y164_Y162C]	0.866
DDFNLYINVKL [MTHFD1_Y52_S49F]	0.732
PAKPRYRARQR [KCNJ11_Y26_E23K]	0.399
VSNFNYFFHRE [KCNA1_Y413_YF]	1.39
LNTFHYAGVSA [POLR2A_Y1109]	1.64
